Where these numbers come from: patent US20080103191A1

Assay Protocol: Solubility in 0.1 N HCl, PBS buffer, FaSSIF and FeSSIF
Format: physicochemical
Applied Conditions: FeSSIF, pH 5, fessif, thermodynamic from solid, fed state fluid, ambient temperature; read-out: Solubility FeSSIF Ph 5.0
Description: For testing solubility, saturated solutions of selected compounds of formula I are prepared in four different systems and compared to the solubility of entacapone. […] The solubility testing is carried out by the following method: An excess amount of each compound is added to a 0.1 N HCl, PBS buffer, FeSSIF and FaSSIF. […] After centrifugation the concentration is determined by HPLC. […]
Please use condition met whenever solubility at 10 min is not below 100 µg/mL, and condition not met whenever it is.

Compound: CCN(CC)C(=O)/C(C#N)=C/c1cc(OC(=O)OCC(C)C)c(O)c([N+](=O)[O-])c1
Label Class: condition met

Compound: CCN(CC)C(=O)/C(C#N)=C/c1cc(OC(=O)OC(C)c2ccccc2)c(O)c([N+](=O)[O-])c1 (stereo not drawn)
Label Class: condition not met

Compound: CCCC(C)OC(=O)Oc1cc(/C=C(\C#N)C(=O)N(CC)CC)cc([N+](=O)[O-])c1O (stereo not drawn)
Label Class: condition met

Compound: CCN(CC)C(=O)/C(C#N)=C/c1cc(OC(=O)OCCc2cccs2)c(O)c([N+](=O)[O-])c1
Label Class: condition not met

Compound: CCN(CC)C(=O)/C(C#N)=C/c1cc(OC(=O)OCC2CCCCC2)c(O)c([N+](=O)[O-])c1
Label Class: condition not met

Compound: CCN(CC)C(=O)/C(C#N)=C/c1cc(O)c(O)c([N+](=O)[O-])c1
Label Class: condition met

Compound: CCN(CC)C(=O)/C(C#N)=C/c1cc(OC(=O)OCC(=O)O)c(O)c([N+](=O)[O-])c1
Label Class: condition met

Compound: CCOC(=O)Oc1cc(/C=C(\C#N)C(=O)N(CC)CC)cc([N+](=O)[O-])c1O
Label Class: condition met

Compound: C#CCCOC(=O)Oc1cc(/C=C(\C#N)C(=O)N(CC)CC)cc([N+](=O)[O-])c1O
Label Class: condition met

Compound: CCN(CC)C(=O)/C(C#N)=C/c1cc(OC(=O)OC2CCCCC2)c(O)c([N+](=O)[O-])c1
Label Class: condition met

Compound: CCCOC(=O)Oc1cc(/C=C(\C#N)C(=O)N(CC)CC)cc([N+](=O)[O-])c1O
Label Class: condition met

Compound: CCN(CC)C(=O)/C(C#N)=C/c1cc(OC(=O)OCc2ccccc2)c(O)c([N+](=O)[O-])c1
Label Class: condition not met

Compound: CCC(CC)OC(=O)Oc1cc(/C=C(\C#N)C(=O)N(CC)CC)cc([N+](=O)[O-])c1O
Label Class: condition met

Compound: CCN(CC)CCOC(=O)Oc1cc(/C=C(\C#N)C(=O)N(CC)CC)cc([N+](=O)[O-])c1O
Label Class: condition met

Compound: CCN(CC)C(=O)/C(C#N)=C/c1cc(OC(=O)OC(C)C)c(O)c([N+](=O)[O-])c1
Label Class: condition not met

====

Reported values of solubility at 10 min for individual entries
Assay Protocol: Solubility in 0.1 N HCl, PBS buffer, FaSSIF and FeSSIF
Assay type: physicochemical
Applied Conditions: FeSSIF, pH 5, fessif, thermodynamic from solid, fed state fluid, ambient temperature; read-out: Solubility FeSSIF Ph 5.0

Molecule: CCN(CC)C(=O)/C(C#N)=C/c1cc(OC(=O)OCc2ccc3c(c2)OCO3)c(O)c([N+](=O)[O-])c1
solubility at 10 min / µg/mL: 710
--
Molecule: CCCCC(CC)COC(=O)Oc1cc(/C=C(\C#N)C(=O)N(CC)CC)cc([N+](=O)[O-])c1O (stereo not drawn)
solubility at 10 min / µg/mL: 190
--
Molecule: CCCCCCCCOC(=O)Oc1cc(/C=C(\C#N)C(=O)N(CC)CC)cc([N+](=O)[O-])c1O
solubility at 10 min / µg/mL: 150
